Reported EC50 values follow for various compounds
molecular target: human GABABR1aR2a (Homo sapiens, UniProt O75899+Q9UBS5); construct: expressed in transfected cells; test: Intracellular Ca2+ mobilization assay in CHO-GABABR1aR2a-Gα16 cell (FLIPR); format: cell-based; settings: enhancer concentration-response (0.001-30 μM) in the presence of 10 nM GABA
Sequence (Q9UBS5 15-961 limits assumed): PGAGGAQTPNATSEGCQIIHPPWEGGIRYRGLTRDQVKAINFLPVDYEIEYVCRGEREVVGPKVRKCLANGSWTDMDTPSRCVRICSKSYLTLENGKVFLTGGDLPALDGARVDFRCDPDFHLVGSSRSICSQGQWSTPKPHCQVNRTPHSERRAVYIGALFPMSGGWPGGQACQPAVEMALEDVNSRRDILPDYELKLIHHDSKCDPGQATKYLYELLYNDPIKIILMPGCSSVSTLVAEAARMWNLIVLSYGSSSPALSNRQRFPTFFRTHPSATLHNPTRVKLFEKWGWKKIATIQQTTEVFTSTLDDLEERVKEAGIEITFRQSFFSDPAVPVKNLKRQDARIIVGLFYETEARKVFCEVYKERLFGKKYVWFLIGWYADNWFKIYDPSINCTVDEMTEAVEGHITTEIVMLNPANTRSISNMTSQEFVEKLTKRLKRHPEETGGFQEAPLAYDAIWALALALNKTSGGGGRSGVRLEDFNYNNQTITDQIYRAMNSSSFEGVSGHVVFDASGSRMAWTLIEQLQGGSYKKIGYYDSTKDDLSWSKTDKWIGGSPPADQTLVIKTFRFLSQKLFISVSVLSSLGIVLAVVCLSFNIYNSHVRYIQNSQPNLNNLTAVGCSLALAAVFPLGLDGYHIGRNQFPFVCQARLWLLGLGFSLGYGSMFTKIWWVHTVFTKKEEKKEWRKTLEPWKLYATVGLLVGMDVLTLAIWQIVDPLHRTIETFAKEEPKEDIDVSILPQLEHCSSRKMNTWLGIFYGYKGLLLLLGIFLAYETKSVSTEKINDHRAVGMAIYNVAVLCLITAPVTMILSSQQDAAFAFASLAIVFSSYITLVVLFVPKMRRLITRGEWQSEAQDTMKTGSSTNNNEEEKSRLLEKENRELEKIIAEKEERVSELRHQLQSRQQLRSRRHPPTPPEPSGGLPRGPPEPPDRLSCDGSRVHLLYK
Sequence (O75899 42-941): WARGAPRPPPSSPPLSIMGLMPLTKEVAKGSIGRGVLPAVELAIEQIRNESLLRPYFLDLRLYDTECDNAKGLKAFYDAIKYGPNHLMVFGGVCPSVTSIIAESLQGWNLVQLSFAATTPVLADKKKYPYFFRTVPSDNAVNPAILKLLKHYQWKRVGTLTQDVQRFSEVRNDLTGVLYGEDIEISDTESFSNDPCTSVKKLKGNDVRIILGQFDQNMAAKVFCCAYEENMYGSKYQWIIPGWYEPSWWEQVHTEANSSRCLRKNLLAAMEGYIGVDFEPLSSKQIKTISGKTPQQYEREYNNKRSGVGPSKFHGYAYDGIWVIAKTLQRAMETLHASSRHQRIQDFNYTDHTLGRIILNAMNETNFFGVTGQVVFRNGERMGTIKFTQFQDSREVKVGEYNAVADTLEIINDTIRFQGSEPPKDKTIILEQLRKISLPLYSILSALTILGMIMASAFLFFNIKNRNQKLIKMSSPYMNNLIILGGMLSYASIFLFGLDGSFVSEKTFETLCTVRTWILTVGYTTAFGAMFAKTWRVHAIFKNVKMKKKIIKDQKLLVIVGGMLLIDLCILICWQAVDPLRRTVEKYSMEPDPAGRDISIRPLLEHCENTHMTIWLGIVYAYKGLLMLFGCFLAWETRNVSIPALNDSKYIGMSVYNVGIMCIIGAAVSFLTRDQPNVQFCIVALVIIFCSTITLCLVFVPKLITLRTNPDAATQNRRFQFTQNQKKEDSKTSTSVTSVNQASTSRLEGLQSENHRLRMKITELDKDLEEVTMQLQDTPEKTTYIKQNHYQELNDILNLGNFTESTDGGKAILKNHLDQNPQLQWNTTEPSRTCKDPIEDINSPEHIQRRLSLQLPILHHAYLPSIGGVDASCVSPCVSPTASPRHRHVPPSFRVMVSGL
Write it as a number; the unit µM goes unstated.

Completed entries (count: 4):
INSERT INTO results (compound, test_system, recorded_number) VALUES
  ('Cc1nc2sc(C)c(C)c2c(-c2ccccc2)c1C(=O)C(F)(F)F [Example 16]', 'human GABABR1aR2a (Homo sapiens, UniProt O75899+Q9UBS5)', 2.4),
  ('Cc1nc2sc3c(c2c(-c2ccc(Cl)c(Cl)c2)c1C(=O)C(F)(F)F)CCC3 [Example 1]', 'human GABABR1aR2a (Homo sapiens, UniProt O75899+Q9UBS5)', 14.7),
  ('COC(=O)c1ccc(-c2c(C(=O)C3CC3)c(C)nc3sc4c(c23)CCCCC4)cc1 [Example 35]', 'human GABABR1aR2a (Homo sapiens, UniProt O75899+Q9UBS5)', 1.2),
  ('Cc1nc2sc(Cl)cc2c(-c2ccccc2)c1C(=O)C(F)(F)F [Example 21]', 'human GABABR1aR2a (Homo sapiens, UniProt O75899+Q9UBS5)', 1.9);

Kindly note the recorded EC50 for COC(=O)N1CCc2c(sc3nc(C)c(C(C)=O)c(-c4ccccc4)c23)C1 [Example 38] , which is 1.4

Kindly note the recorded EC50 for CC(=O)c1c(C)nc2sc3c(c2c1-c1ccco1)CCC3 [Example 18] , which is 0.86

Kindly note the recorded EC50 for Cc1nc2sc3c(c2c(-c2cccs2)c1C(=O)C(F)(F)F)CCC3 [Example 2] , which is 1.3

Kindly note the recorded EC50 for CC(=O)c1c(C)nc2sc3cnccc3c2c1-c1ccccc1 [Example 23] , which is 1.3
